Conditions: in n-butanol, 283.15 K
READOUT_KIND: solubility (mole fraction)
Answer field: number only, no words.

[in] Identify the reported solubility (mole fraction) for the following entry. O=[N+]([O-])c1cc([N+](=O)[O-])c(Cl)c(Cl)c1Cl
[out] 0.00238

----------
Conditions: in toluene, 303.15 K
READOUT_KIND: solubility (mole fraction)
Answer field: number only, no words.

[in] Identify the reported solubility (mole fraction) for the following entry. O=[N+]([O-])c1cc([N+](=O)[O-])c(Cl)c(Cl)c1Cl
[out] 0.258

----------
Settings: in ethyl acetate, 308.15 K
READOUT_KIND: solubility (mole fraction)
Answer field: number only, no words.

[in] Identify the reported solubility (mole fraction) for the following entry. O=[N+]([O-])c1cc([N+](=O)[O-])c(Cl)c(Cl)c1Cl
[out] 0.217

----------
Details: in toluene, 313.15 K
READOUT_KIND: solubility (mole fraction)
Answer field: number only, no words.

[in] Identify the reported solubility (mole fraction) for the following entry. O=[N+]([O-])c1cc([N+](=O)[O-])c(Cl)c(Cl)c1Cl
[out] 0.323

----------
Details: in 1,2-dichloroethane, 278.15 K
READOUT_KIND: solubility (mole fraction)
Answer field: number only, no words.

[in] Identify the reported solubility (mole fraction) for the following entry. O=[N+]([O-])c1cc([N+](=O)[O-])c(Cl)c(Cl)c1Cl
[out] 0.06

----------
Conditions: in isopropanol, 288.15 K
READOUT_KIND: solubility (mole fraction)

[in] Identify the reported solubility (mole fraction) for the following entry. O=[N+]([O-])c1cc([N+](=O)[O-])c(Cl)c(Cl)c1Cl
[out] 0.00174

----------
Conditions: in chloroform, 313.15 K
READOUT_KIND: solubility (mole fraction)

[in] Identify the reported solubility (mole fraction) for the following entry. O=[N+]([O-])c1cc([N+](=O)[O-])c(Cl)c(Cl)c1Cl
[out] 0.201

----------
Conditions: in DMF, 303.15 K
READOUT_KIND: solubility (mole fraction)
Answer field: number only, no words.

[in] Identify the reported solubility (mole fraction) for the following entry. O=[N+]([O-])c1cc([N+](=O)[O-])c(Cl)c(Cl)c1Cl
[out] 0.298

----------
Details: in acetonitrile, 318.15 K
READOUT_KIND: solubility (mole fraction)
Answer field: number only, no words.

[in] Identify the reported solubility (mole fraction) for the following entry. O=[N+]([O-])c1cc([N+](=O)[O-])c(Cl)c(Cl)c1Cl
[out] 0.22

----------
Conditions: in acetonitrile, 308.15 K
READOUT_KIND: solubility (mole fraction)
Answer field: number only, no words.

[in] Identify the reported solubility (mole fraction) for the following entry. O=[N+]([O-])c1cc([N+](=O)[O-])c(Cl)c(Cl)c1Cl
[out] 0.15

----------
Conditions: in chloroform, 308.15 K
READOUT_KIND: solubility (mole fraction)
Answer field: number only, no words.

[in] Identify the reported solubility (mole fraction) for the following entry. O=[N+]([O-])c1cc([N+](=O)[O-])c(Cl)c(Cl)c1Cl
[out] 0.169

----------
Settings: in dichloromethane, 293.15 K
READOUT_KIND: solubility (mole fraction)
Answer field: number only, no words.

[in] Identify the reported solubility (mole fraction) for the following entry. O=[N+]([O-])c1cc([N+](=O)[O-])c(Cl)c(Cl)c1Cl
[out] 0.116
